- Assay System: human adenosine 2a receptor (Homo sapiens, UniProt P29274)
- Sequence (P29274 whole entry): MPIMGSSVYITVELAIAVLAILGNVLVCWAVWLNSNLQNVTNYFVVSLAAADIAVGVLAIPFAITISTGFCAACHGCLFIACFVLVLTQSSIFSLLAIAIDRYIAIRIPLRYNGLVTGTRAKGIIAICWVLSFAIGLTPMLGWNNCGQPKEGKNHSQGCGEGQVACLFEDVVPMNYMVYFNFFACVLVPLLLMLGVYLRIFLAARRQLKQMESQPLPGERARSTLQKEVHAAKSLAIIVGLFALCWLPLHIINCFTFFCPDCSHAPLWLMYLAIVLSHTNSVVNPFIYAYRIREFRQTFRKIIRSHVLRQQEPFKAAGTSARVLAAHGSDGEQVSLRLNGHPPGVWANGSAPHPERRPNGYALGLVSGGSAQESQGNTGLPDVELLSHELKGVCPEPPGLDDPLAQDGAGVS
- Assay: Agonist activity at adenosine 2a receptor, CHO cells with CRE-SPAP reporter (basal cAMP)
- Format: cell-based
- Particulars: ratio of EC50 to that of NECA, CHO cells transfected with human receptor, SPAP readout
- Description: (1) Agonist activity against adenosine 2a, adenosine 1 and adenosine 3 receptor subtypes. Agonist selectivity of compounds against other human adenosine receptors was determined using Chinese hamster ovary (CHO) cells transfected with the gene for the relevant human adenosine receptor following a method based on that of Castanon and Spevak, 1994. […] EC50 values for compounds were then determined as a ratio to that of the non-selective agonist N-ethyl carboxamide adenosine (NECA).
Items are presented alongside their recorded A2a, EC50 values as a ratio of that of NECA.
When you answer, write just the number.

Compound	Number
Cn1cnc(CCNc2nc(NCC(c3ccccc3)c3ccccc3)c3ncn([C@@H]4O[C@H](CN5C(=O)CNC5=O)[C@@H](O)[C@H]4O)c3n2)c1.O=CO.O=CO	13.46
O=CO.O[C@@H]1[C@H](O)[C@@H](Cn2nccn2)O[C@H]1n1cnc2c(NCC(c3ccccc3)c3ccccc3)nc(NCCN3CCOCC3)nc21	16.9

Now for a further compound.
Exercise: I would be grateful if you could share the reported A2a, EC50 values as a ratio of that of NECA for Cn1cnc(CCNc2nc(NCC(c3ccccc3)c3ccccc3)c3ncn(C4OC(Cn5nccn5)C(O)C4O)c3n2)c1 (stereo not drawn) .
Solution: 1.31

====

Items are presented alongside their recorded A3, EC50 values as a ratio of that of NECA.
- Assay System: human adenosine 3 receptor (Homo sapiens, UniProt P0DMS8)
- Sequence (P0DMS8 whole entry): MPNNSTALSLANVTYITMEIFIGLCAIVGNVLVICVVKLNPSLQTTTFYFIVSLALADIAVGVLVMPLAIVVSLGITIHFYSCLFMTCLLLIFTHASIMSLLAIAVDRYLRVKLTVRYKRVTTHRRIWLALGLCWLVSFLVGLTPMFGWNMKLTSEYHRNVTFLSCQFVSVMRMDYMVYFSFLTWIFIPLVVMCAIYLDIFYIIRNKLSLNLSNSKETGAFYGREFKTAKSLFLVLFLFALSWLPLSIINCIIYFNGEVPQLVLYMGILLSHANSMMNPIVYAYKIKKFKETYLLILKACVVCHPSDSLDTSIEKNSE
- Assay: Agonist activity at adenosine 3 receptor, CHO cells with CRE-SPAP reporter (forskolin-enhanced cAMP)
- Assay type: cell-based
- Particulars: ratio of EC50 to that of NECA, CHO cells transfected with human receptor, SPAP readout

Molecule	Result
Cn1cnc(CCNc2nc(NCC(c3ccccc3)c3ccccc3)c3ncn([C@@H]4O[C@H](CN5C(=O)CNC5=O)[C@@H](O)[C@H]4O)c3n2)c1.O=CO.O=CO	>270
Cn1cnc(CCNc2nc(NCC(c3ccccc3)c3ccccc3)c3ncn(C4OC(Cn5nccn5)C(O)C4O)c3n2)c1 (stereo not drawn)	>147

Now for a further molecule.
Exercise: I would be grateful if you could share the reported A3, EC50 values as a ratio of that of NECA for OC1C(Cn2cncn2)OC(n2cnc3c(NCC(c4ccccc4)c4ccccc4)nc(NC4CCNC4)nc32)C1O (stereo not drawn) .
Solution: >152
